Target: E. coli DNA gyrase (Escherichia coli, UniProt P0AES4+P0AES6)
Assay: DNA gyrase supercoiling inhibition assay
Conditions: 2 U enzyme, relaxed plasmid, 37 °C 30 min
Measured attribute: IC50

Answered cases to consult:
1. Cc1ccc2oc(C(=O)N3CCC(O)(c4cccc(C(F)(F)F)c4)CC3)c(C)c2c1
> 500 µM
2. Cc1ccc2c(C)c(C(=O)N3CCC4(CC(=O)c5ccccc5O4)C3)oc2c1 (centres unmarked)
> 500 µM

Please give IC50 for each item listed below.
1. Cc1c(C(=O)N2CCCCC2CCc2ccc(O)cc2)oc2c(F)cccc12 (centres unmarked)
2. Cc1ccc2[nH]c(C3CCN(C(=O)c4oc5ccc(C)cc5c4C)CC3)nc2c1
3. Cc1cc2oc(C(=O)N3CCC(c4nc5ccccc5[nH]4)CC3)c(C)c2cc1C

A:
1: > 500 µM; 2: > 500 µM; 3: > 500 µM
